biological target: HLA DRB1*0401 (human); assay: HLA class II competition binding assay
measuredProperty: pIC50
For clarity, pIC50 is expressed as the negative log10 of concentration in mol/L.

Exercise: Fill in: pIC50 of EEQYNSTYTVVSVLTVLHQD [SEQ ID NO 114] is ___
Solution: 5.92

Source: patent US20240173377A1
